System: KM-20L2
ASSAY PROCEDURE: NCI tumour cell line growth inhibition, 48 h
Calls of active or inactive are those of the source. Rule as the data show it: active = GI50 up to about 1.1 µM and inactive = higher.
Respond only with the outcome that fits, drawn from label 1 = active, label 0 = inactive

Example cases with answers are listed next.
MOLECULE	TARGET OF ASSAY	CLASS NAME
C/C(=N\NC(=N)N)C(CN1CCOCC1)C(c1ccccc1)c1c(O)c2ccccc2oc1=O (stereo not given)	KM-20L2	label 0
CSc1nsc(-c2ccccc2)[s+]1.[O-][Cl+3]([O-])([O-])[O-]	KM-20L2	label 0
COc1ccc(/C=N/NC(=O)NCCNCCO)cc1	KM-20L2	label 0
COc1cccc(NC(=O)/C(CC(=O)CC(c2ccccc2)c2c(O)c3ccccc3oc2=O)=N\NC(C)(C)C)c1OC (stereo not given)	KM-20L2	label 0

Which outcome was entered for the molecule "Cc1nc(Nc2ccccc2)sc1C(=O)CC(=O)C(=O)NC12CC3CC(CC(C3)C1)C2" in this test? label 0

Now give it for N#CC1=C(N)Oc2c(ccc3cccnc23)C1c1ccccc1 (stereo not given) too. label 1

Now give it for CC(C)(C)c1cc(C(O)(C(F)(F)F)C(F)(F)F)c2c(c1)C(C(F)(F)F)(C(F)(F)F)OC(c1ccccc1)(C(C)(C)C)N2 (stereo not given) too. label 0

Now give it for COc1ccc(/C(=N/Nc2ccccc2)C(c2ccc(OC)cc2)C2OC(=O)c3ccccc32)cc1 (stereo not given) too. label 0

Now give it for "O=C(Nc1ccc(Sc2ccc(/N=N/c3c(O)c(S(=O)(=O)O)cc4cc(S(=O)(=O)O)ccc34)cc2)cc1)c1ccc(/N=N/c2c(O)c(S(=O)(=O)O)cc3cc(S(=O)(=O)O)ccc23)cc1" too. label 0

Now give it for O=C1C(Cl)C(c2ccc(Cl)cc2)N1n1cnc2ccccc2c1=O (stereo not given) too. label 0

Now give it for "Cn1c2cc([N+](=O)[O-])ccc2c(=O)c2c(O)cc3c(c21)C=CC(C)(C)O3" too. label 0

Now give it for COC(=O)C1C(O)C(C)C(O)C(C)/C=C\C=C(C)C(=O)Nc2c(C)c(OC(C)=O)c3c(c2O)C(=O)C(C)=C2OCOC(=C23)C(C)=CC(C)(O)C(O)C(C)C1O (stereo not given) too. label 0

Now give it for "Nc1nc[n+](Cc2ccccc2CCO)c2[nH]cnc12" too. label 0

Now give it for "O=C1c2cc(CCl)sc2C(=O)c2ccsc21" too. label 0

---

GI50 values by entry
Test system: UO-31
ASSAY PROCEDURE: NCI tumour cell line growth inhibition, 48 h
Active and inactive are the calls of the source. No stated cut-off is given here; in the data, active = GI50 up to about 1.1 µM and inactive = higher.

These solved cases illustrate the format of a correct answer.
MOLECULE	VALUE REPORTED
CC(=O)Nc1ccc(CNc2cc(=O)n(C)c(=O)[nH]2)cc1	> 100 µM (inactive)
O=C(N/C(=C\c1cc(Cl)ccc1Cl)c1nc2c(O)nc(S)nc2[nH]1)c1ccccc1	23.6 µM (inactive)
CCOC(=O)C(NC(=O)c1ccc(/N=N/N(C)C)cc1)C(C)C (centres undefined)	> 100 µM (inactive)
Cc1nc(N)c(N2CCN(CN)CC2)c(O)n1	> 100 µM (inactive)
CCOC(=O)/C=C1\Nc2ccccc2C(c2ccccc2)=NC1OC(C)=O (centres undefined)	44 µM (inactive)

Name the recorded GI50 for "Cc1ncc([N+](=O)[O-])n1CCNS(=O)(=O)CCCn1ccnc1[N+](=O)[O-]" . > 100 µM (inactive)

Now give it for "[N-]=[N+]=NC12CC3C4CC5CC3C(C1)C(C5)C4C2" too. > 100 µM (inactive)
